experimental-target: GLP-1 receptor (RINm5F cell membranes) (Rattus norvegicus, UniProt P32301)
Construct: RINm5F insulinoma cells expressing endogenous GLP-1 receptors; endogenous in cells; host or cells: RINm5F cell membranes
assay: GLP-1 receptor binding assay (GLP RBA), [125I]GLP-1 displacement
experimental-context: [125I]GLP-1 tracer
pIC50: −log10 of the molar value. Where no end group is shown, it is not given here.
In this section we review reported pIC50 values for a set of substances.
endpoint-label: pIC50

>>> test_result("HAEGTFTSDVTQQLDEKAAKEFIDALINGGPSKEIIS-NH2 (C-terminus assumed) [compound 13]")
7.13
>>> test_result("EGTYTNDVTEYLEEKAAKEFIEWLIKGKPKKIRYS-NH2 (C-terminus assumed) [compound 37]")
7.66
>>> test_result("HAEGTYTNDVTEYLEEKAAKEFIEWLIPKKIRYS-NH2 (C-terminus assumed) [compound 32]")
7.66
>>> test_result("HAEGTYTNDVTEYLEEKAAKFIEWLIKGKPKKIRYS-NH2 (C-terminus assumed) [compound 31]")
7.72
>>> test_result("HAEGTFTNDMTNYLEEKAAKEFVGWLIKGRS-NH2 (C-terminus assumed) [compound 6]")
9.00
>>> test_result("HAEGTYTNDVTEYLEEKAAKEFIEWLIKGPKKIRYS-NH2 (C-terminus assumed) [compound 36]")
9.44
>>> test_result("HAEGTYTNDVTEYLEEKAAKEFIEWLIGKPKKIRYS-NH2 (C-terminus assumed) [compound 35]")
9.55
>>> test_result("HADGTYTSDVSSYLQDQAAKDFITWLKSGQPKPDAVET-NH2 [compound 48]")
7.47
>>> test_result("HGEGTYTNDVTEYLEEKAAKEFIEWLIKGKPKKIRYS-NH2 (C-terminus assumed) [compound 26]")
9.96
>>> test_result("HAEGTFTSDVTQQLDEKAAKEFIDWLINPGSEGIKSI-NH2 (C-terminus assumed) [compound 14]")
7.74
